# assayTarget: A1 receptor (Rattus norvegicus, UniProt P25099)
# Construct: a rat was decapitated, and the cerebral cortex (A1 receptor); from tissue; host or cells: rat cerebral cortex membranes
# Sequence (P25099 whole entry): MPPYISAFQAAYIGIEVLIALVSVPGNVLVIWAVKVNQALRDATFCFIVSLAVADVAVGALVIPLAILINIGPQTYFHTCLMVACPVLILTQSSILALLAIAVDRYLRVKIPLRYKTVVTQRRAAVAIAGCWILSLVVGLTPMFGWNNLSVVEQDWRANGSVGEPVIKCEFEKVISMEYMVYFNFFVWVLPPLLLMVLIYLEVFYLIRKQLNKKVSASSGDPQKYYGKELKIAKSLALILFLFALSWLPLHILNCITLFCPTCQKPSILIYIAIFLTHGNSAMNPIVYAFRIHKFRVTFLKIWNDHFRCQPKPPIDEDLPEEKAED
# experimentNotes: A1 receptor antagonism (inhibition of 3H-cyclohexyladenosine binding, rat cerebral cortex membranes)
# reportedConditions: rat cerebral cortex, 3H-CHA, 25° C., 60 minutes; read-out: A1 receptor (Ki, μM), binding-inhibition constant
recordedMetric: Ki (µM)

> print(dat)
                                   compound  reading
1  CCCn1c(=O)c2c(nn3cc(-c4ccccc4)[nH]c23)n(Cc2ccccc2)c1=O [compound 15]     0.01
2  CCCn1c(=O)c2c(nn3cc(-c4cccc(Cl)c4)[nH]c23)n(Cc2ccccc2)c1=O [compound 26]    0.037
3  CCCn1c(=O)c2c(nn3cc(-c4ccccc4Cl)[nH]c23)n(Cc2ccccc2)c1=O [compound 27]     0.58
4  CCCn1c(=O)c2c3n(nc2n(Cc2ccc(Cl)cc2)c1=O)CCN3 [compound 2]     0.14
5  CCCCOc1ccc(-c2cn3nc4c(c(=O)n(CCC)c(=O)n4Cc4ccccc4)c3[nH]2)cc1 [compound 24]    0.053
6  CCCn1c(=O)c2c3n(nc2n(Cc2ccccc2Cl)c1=O)CCN3 [compound 4]     0.27

[A] CCCn1c(=O)c2c(nn3cc[nH]c23)n(Cc2ccccc2Cl)c1=O [compound 11]
[B] CCCCc1cn2nc3c(c(=O)n(CCC)c(=O)n3Cc3ccccc3)c2[nH]1 [compound 17]
[C] CCCCn1c(=O)n(Cc2ccccc2)c(=O)c2c3n(nc21)CCN3 [compound 5]
### Prompt # rank_down: sort by Ki, max first In plain terms: list the labels in the order you were asked to.
### Response C, A, B

[A] CCCn1c(=O)c2c(nn3cc(-c4cccc(OC)c4)[nH]c23)n(Cc2ccccc2)c1=O [compound 21]
[B] CCCn1c(=O)c2c(nn3cc(-c4ccc(OC)cc4)[nH]c23)n(Cc2ccccc2)c1=O [compound 22]
[C] CCCn1c(=O)c2c3n(nc2n(Cc2cccc(Cl)c2)c1=O)CCN3 [compound 3]
### Prompt I would appreciate it if you could sort these 3 compounds by Ki, starting from the smallest number. Response field: labels, in requested order.
### Response B, A, C
(B: 0.0047 µM, A: 0.0069 µM, C: 0.19 µM)

[a] CCCCn1c(=O)n(Cc2ccccc2)c(=O)c2c1nn1cc[nH]c21 [compound 12]
[b] CCCn1c(=O)c2c(nn3cc[nH]c23)n(Cc2ccccc2)c1=O [compound 8]
[c] CCCCn1c(=O)[nH]c(=O)c2c3n(nc21)CCN3 [compound 29]
### Prompt Endpoint returns the given compounds ordered by ascending Ki. API: response body holds the labels in the requested order.
### Response b, a, c

====

# assayTarget: A1 receptor (Rattus norvegicus, UniProt P25099)
# Construct: a rat was decapitated, and the cerebral cortex (A1 receptor); from tissue; host or cells: rat cerebral cortex membranes
# experimentNotes: A1 receptor antagonism (inhibition of 3H-cyclohexyladenosine binding, rat cerebral cortex membranes)
recordedMetric: pKi
Scale note: pKi = -log10(concentration in M).

Documented pKi of "CCCn1c(=O)[nH]c2nn3cc[nH]c3c2c1=O" : 6.38

====

# assayTarget: A1 receptor (Rattus norvegicus, UniProt P25099)
# Construct: a rat was decapitated, and the cerebral cortex (A1 receptor); from tissue; host or cells: rat cerebral cortex membranes
# experimentNotes: A1 receptor antagonism (inhibition of 3H-cyclohexyladenosine binding, rat cerebral cortex membranes)
# reportedConditions: rat cerebral cortex, 3H-CHA, 25° C., 60 minutes; read-out: A1 receptor (Ki, μM), binding-inhibition constant
recordedMetric: Ki (µM)

> print(dat)
                                   compound                               assaytarget  unittag  reading
1  CCCn1c(=O)c2c3n(nc2n(Cc2ccccc2)c1=O)CCN3 [compound 1]  A1 receptor (Rattus norvegicus, UniProt P25099)       µM     0.12
2  CCCn1c(=O)c2c(nn3cc[nH]c23)n(Cc2cccc(Cl)c2)c1=O [compound 10]  A1 receptor (Rattus norvegicus, UniProt P25099)       µM    0.098
3  CCCn1c(=O)c2c(nn3c4c([nH]c23)CCCC4)n(Cc2ccccc2)c1=O [compound 19]  A1 receptor (Rattus norvegicus, UniProt P25099)       µM    0.027
4  CCCn1c(=O)c2c(nn3cc(-c4ccccc4OC)[nH]c23)n(Cc2ccccc2)c1=O [compound 23]  A1 receptor (Rattus norvegicus, UniProt P25099)       µM     0.53
5  CCCn1c(=O)c2c(nn3cc(-c4ccc(C)cc4)[nH]c23)n(Cc2ccccc2)c1=O [compound 25]  A1 receptor (Rattus norvegicus, UniProt P25099)       µM     0.58

[P] CCCn1c(=O)c2c(nn3cc[nH]c23)n(CCc2ccccc2)c1=O [compound 13]
[Q] CCCn1c(=O)c2c(nn3cc[nH]c23)n(CCCc2ccccc2)c1=O [compound 14]
[R] CCCn1c(=O)c2c(nn3c(C)c(C)[nH]c23)n(Cc2ccccc2)c1=O [compound 16]
[S] CCCn1c(=O)c2c(nn3cc[nH]c23)n(Cc2ccc(Cl)cc2)c1=O [compound 9]
### Prompt Parameters: sort_field (Ki), sort_dir (desc). Put the labels in the requested order and write them down.
### Response P, Q, S, R
